meta.source: the RNAGym collection of RNA variant scans (doi:10.1073/pnas.2313332121)

B1: TPR 5TU (parent)
chain: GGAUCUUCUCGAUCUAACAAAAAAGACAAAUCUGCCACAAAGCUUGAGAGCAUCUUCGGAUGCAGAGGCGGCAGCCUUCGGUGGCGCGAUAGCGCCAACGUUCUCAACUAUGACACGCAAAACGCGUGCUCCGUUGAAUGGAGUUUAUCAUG

Variants of: B1
Assay: polymerase ribozyme fitness, log enrichment relative to wild type (log ratio); higher = more active; in vitro selection for triplet polymerase activity
Fewer inactive variants are shown than the library holds.
Rule: polymerase ribozyme fitness (log ratio) of -2 or more gives criterion met; anything lower gives criterion not met.

# count of solved cases: 10
// query Kindly determine if polymerase ribozyme fitness (log ratio) recorded for A3U C87G A113C is above or exactly -2.
// result criterion not met

// query // repeat for C87G A89U and report
// result criterion not met

// query Next record, please: A52G C87U C93U C131A G136A G143C U145G U146G
// result criterion not met

// query Try the variant A3C G58A C87U
// result criterion met

// query Another variant: A23C
// result criterion not met

// query Now consider A20C U104G A107C U145G .
// result criterion not met

// query Follow-up entry: A49C A52G G83A U102G U134G
// result criterion not met

// query Try this variant next: G58U A142C
// result criterion met

// query Same question, C54U C114A A137U this time
// result criterion not met

// query Let us now turn to A30G G42U A113U C114U C125U
// result criterion not met

New cases:
// query Identify whether the reported polymerase ribozyme fitness (log ratio) of the following variant is -2 or greater: G83U C149U
// result criterion met

// query Try A24U U53A G80A C85U A142C next.
// result criterion not met

// query What would you report for C87U A137G U148C ?
// result criterion not met

// query Another variant to check: A24C A49C A52C A64U C69A U82G C108U U130A U139G
// result criterion not met
